Biological target: T1, CD3 epsilon homodimer protein (UniProt P07766 23-126)
T1 construct: also called CD3 (CD3 epsilon)
T1 sequence (P07766 23-126): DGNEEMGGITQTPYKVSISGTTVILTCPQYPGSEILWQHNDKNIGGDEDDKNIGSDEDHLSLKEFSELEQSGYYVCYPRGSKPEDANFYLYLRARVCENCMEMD
Assay: SPR Biacore T200, CD3e homodimer on chip, vs unaltered GLS3000 antibody
param class (str): category from ratio of amounts bound (Z=Y/X); see ranges low = under 0.2, medium = from 0.2 up to 0.7, high = 0.7 and over

Some entries whose results are on file:
Binder	Classification
GLS3000 K50S (antibody, name in Kabat numbering, V domains shown, one-arm IgG as m2) VH: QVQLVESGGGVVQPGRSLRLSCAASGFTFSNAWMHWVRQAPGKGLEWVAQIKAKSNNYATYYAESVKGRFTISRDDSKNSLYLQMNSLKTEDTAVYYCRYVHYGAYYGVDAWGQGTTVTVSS VL: DIVMTQSPLSLPVTPGEPASISCRSSQSLVHSNRNTYLHWYQQKPGQAPRLLIYSVSNRFSGVPDRFSGSGSGTDFTLKISRVEAEDVGVYYCGQGTQVPYTFGQGTKLEIK	medium
GLS3000 K50Q (antibody, name in Kabat numbering, V domains shown, one-arm IgG as m2) VH: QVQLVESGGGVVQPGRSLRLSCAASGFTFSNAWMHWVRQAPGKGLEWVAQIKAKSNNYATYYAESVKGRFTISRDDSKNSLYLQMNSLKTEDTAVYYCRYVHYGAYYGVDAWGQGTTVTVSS VL: DIVMTQSPLSLPVTPGEPASISCRSSQSLVHSNRNTYLHWYQQKPGQAPRLLIYQVSNRFSGVPDRFSGSGSGTDFTLKISRVEAEDVGVYYCGQGTQVPYTFGQGTKLEIK	low
GLS3000 H34A (antibody, name in Kabat numbering, V domains shown, one-arm IgG as m2) VH: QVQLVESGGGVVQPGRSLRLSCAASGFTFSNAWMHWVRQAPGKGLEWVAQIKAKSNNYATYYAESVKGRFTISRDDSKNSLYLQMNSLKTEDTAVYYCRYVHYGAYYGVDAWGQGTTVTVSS VL: DIVMTQSPLSLPVTPGEPASISCRSSQSLVHSNRNTYLAWYQQKPGQAPRLLIYKVSNRFSGVPDRFSGSGSGTDFTLKISRVEAEDVGVYYCGQGTQVPYTFGQGTKLEIK	high
GLS3000 R24S (antibody, name in Kabat numbering, V domains shown, one-arm IgG as m2) VH: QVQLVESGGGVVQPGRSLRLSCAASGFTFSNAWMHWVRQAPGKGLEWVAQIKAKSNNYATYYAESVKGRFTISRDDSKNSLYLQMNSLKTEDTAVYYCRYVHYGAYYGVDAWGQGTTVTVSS VL: DIVMTQSPLSLPVTPGEPASISCSSSQSLVHSNRNTYLHWYQQKPGQAPRLLIYKVSNRFSGVPDRFSGSGSGTDFTLKISRVEAEDVGVYYCGQGTQVPYTFGQGTKLEIK	high
GLS3000 K50L (antibody, name in Kabat numbering, V domains shown, one-arm IgG as m2) VH: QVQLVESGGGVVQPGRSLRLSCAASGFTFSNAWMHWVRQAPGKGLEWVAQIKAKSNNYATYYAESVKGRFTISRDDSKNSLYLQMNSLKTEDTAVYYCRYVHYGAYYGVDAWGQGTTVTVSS VL: DIVMTQSPLSLPVTPGEPASISCRSSQSLVHSNRNTYLHWYQQKPGQAPRLLIYLVSNRFSGVPDRFSGSGSGTDFTLKISRVEAEDVGVYYCGQGTQVPYTFGQGTKLEIK	medium

Into which bin does this binder go? GLS3000 G91Y (antibody, name in Kabat numbering, V domains shown, one-arm IgG as m2) VH: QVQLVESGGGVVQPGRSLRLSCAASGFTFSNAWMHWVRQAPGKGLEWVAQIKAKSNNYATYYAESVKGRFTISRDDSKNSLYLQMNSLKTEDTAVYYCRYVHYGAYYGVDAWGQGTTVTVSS VL: DIVMTQSPLSLPVTPGEPASISCRSSQSLVHSNRNTYLHWYQQKPGQAPRLLIYKVSNRFSGVPDRFSGSGSGTDFTLKISRVEAEDVGVYYCGQYTQVPYTFGQGTKLEIK
low

Into which bin does this binder go? GLS3000 N30T (antibody, name in Kabat numbering, V domains shown, one-arm IgG as m2) VH: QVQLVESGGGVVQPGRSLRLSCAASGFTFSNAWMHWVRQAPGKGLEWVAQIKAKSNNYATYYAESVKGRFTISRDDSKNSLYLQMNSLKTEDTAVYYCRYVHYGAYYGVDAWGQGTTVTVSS VL: DIVMTQSPLSLPVTPGEPASISCRSSQSLVHSNRTTYLHWYQQKPGQAPRLLIYKVSNRFSGVPDRFSGSGSGTDFTLKISRVEAEDVGVYYCGQGTQVPYTFGQGTKLEIK
medium

Into which bin does this binder go? GLS3000 V94I (antibody, name in Kabat numbering, V domains shown, one-arm IgG as m2) VH: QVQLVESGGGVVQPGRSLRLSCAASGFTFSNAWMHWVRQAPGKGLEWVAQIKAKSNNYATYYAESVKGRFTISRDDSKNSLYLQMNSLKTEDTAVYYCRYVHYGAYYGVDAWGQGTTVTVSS VL: DIVMTQSPLSLPVTPGEPASISCRSSQSLVHSNRNTYLHWYQQKPGQAPRLLIYKVSNRFSGVPDRFSGSGSGTDFTLKISRVEAEDVGVYYCGQGTQIPYTFGQGTKLEIK
medium

Into which bin does this binder go? GLS3000 Y96F (antibody, name in Kabat numbering, V domains shown, one-arm IgG as m2) VH: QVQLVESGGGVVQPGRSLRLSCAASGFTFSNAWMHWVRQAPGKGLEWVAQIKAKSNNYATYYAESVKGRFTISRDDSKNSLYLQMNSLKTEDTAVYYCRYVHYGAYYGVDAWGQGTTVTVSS VL: DIVMTQSPLSLPVTPGEPASISCRSSQSLVHSNRNTYLHWYQQKPGQAPRLLIYKVSNRFSGVPDRFSGSGSGTDFTLKISRVEAEDVGVYYCGQGTQVPFTFGQGTKLEIK
high

Into which bin does this binder go? GLS3000 P95E (antibody, name in Kabat numbering, V domains shown, one-arm IgG as m2) VH: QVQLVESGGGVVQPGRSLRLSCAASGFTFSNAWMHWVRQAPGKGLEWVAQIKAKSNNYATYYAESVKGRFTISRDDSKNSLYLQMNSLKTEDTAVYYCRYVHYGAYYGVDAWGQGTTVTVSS VL: DIVMTQSPLSLPVTPGEPASISCRSSQSLVHSNRNTYLHWYQQKPGQAPRLLIYKVSNRFSGVPDRFSGSGSGTDFTLKISRVEAEDVGVYYCGQGTQVEYTFGQGTKLEIK
medium
